Overview of reported In vitro activity compared with native peptide (%) vs. GIP across a group of binders:
# target_system: T1, human GIP receptor (human, UniProt P48546 22-466)
# T1 sequence (looked up): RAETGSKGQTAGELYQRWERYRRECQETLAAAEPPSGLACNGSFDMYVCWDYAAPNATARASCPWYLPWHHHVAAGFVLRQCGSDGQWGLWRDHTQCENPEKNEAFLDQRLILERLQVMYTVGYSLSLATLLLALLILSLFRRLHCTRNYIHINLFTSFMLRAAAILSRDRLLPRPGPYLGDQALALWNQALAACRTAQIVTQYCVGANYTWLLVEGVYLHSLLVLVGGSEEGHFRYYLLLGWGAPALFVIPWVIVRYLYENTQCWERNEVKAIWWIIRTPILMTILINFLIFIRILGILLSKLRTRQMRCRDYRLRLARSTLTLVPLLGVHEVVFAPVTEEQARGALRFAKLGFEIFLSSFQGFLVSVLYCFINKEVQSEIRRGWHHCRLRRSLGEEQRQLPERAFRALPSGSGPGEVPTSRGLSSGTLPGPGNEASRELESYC
# experiment_notes: cell-based or functional assay
Bridges are numbered along the chain shown (N, C = ends). Where no end group is shown, it is not given here. [ ]: non-standard residue; d: D form. The star is where a group is joined. Acetyl(2-(4-imidazolyl)) = O=C(Cc1c[nH]cn1)*; Aib = CC(C)(N)C(=O)O
Give the value in % but do not write % after it.

Task: Hello, please tell me recorded In vitro activity compared with native peptide (%) vs. GIP for this one: Y[Aib]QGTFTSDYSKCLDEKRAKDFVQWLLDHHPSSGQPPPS (bridge 16-20) [Triple agonist of SEQ ID NO: 70]
Result: 64.4

Task: Hello, please tell me recorded In vitro activity compared with native peptide (%) vs. GIP for this one: {Acetyl(2-(4-imidazolyl))}-[Aib]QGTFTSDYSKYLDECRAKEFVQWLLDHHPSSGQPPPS (bridge 15-19) [Triple agonist of SEQ ID NO: 73]
Result: 3
